Data origin, for the record: ChEMBL document CHEMBL3112496

Test system: MCF7
Test: Growth inhibition of human MCF7 cells by MTT assay
Type: functional
Consider the following compounds; for each one, report its GI50.

Returns the measured GI50 for the input compound. Input: C1=C2CCN3Cc4cc5c(cc4[C@H]([C@H](OCc4cccnc4)[C@H]1OCc1cccnc1)[C@@H]23)OCO5 88 µM

Returns the measured GI50 for the input compound. Input: CSCO[C@H]1C=C2CCN3Cc4cc5c(cc4[C@H]([C@@H]1O)[C@@H]23)OCO5 70 µM

Returns the measured GI50 for the input compound. Input: O[C@H]1[C@H]2c3cc4c(cc3CN3CCC(=C[C@@H]1OCc1cccnc1)[C@H]23)OCO4 80 µM

Returns the measured GI50 for the input compound. Input: C#CCCCCO[C@H]1[C@H]2c3cc4c(cc3CN3CCC(=C[C@@H]1OCCCCC#C)[C@H]23)OCO4 16 µM
